Provide the reported EC50 of each item.
# assayed system: human FGFR1c + KLB receptor complex on HEK293 iLite FGF21 reporter cells (human, UniProt P11362 22-822; Q86Z14 1-1044)
# Sequence (P11362 22-822, chain 1 of 2): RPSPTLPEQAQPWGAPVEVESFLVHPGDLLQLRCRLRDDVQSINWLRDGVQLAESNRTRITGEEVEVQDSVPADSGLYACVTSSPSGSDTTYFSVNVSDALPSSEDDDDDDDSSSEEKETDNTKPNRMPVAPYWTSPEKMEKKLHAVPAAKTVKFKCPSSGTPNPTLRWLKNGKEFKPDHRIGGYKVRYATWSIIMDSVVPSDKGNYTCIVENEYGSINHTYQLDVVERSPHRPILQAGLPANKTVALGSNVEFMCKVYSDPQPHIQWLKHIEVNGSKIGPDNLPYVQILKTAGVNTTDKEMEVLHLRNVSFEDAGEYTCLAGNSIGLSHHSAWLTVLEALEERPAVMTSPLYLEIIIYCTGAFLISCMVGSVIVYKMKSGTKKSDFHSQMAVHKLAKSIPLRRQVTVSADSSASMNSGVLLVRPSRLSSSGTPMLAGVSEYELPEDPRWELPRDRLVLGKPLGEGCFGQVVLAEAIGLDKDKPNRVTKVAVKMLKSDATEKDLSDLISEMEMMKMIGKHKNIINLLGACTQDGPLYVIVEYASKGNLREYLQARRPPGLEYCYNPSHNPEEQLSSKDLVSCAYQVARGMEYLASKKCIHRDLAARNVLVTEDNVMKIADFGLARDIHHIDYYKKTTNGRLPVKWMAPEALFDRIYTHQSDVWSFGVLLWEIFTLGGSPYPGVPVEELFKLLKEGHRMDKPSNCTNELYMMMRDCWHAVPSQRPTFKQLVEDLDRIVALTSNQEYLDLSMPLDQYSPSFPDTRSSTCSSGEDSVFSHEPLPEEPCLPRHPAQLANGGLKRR
# Sequence (Q86Z14 whole entry, chain 2 of 2): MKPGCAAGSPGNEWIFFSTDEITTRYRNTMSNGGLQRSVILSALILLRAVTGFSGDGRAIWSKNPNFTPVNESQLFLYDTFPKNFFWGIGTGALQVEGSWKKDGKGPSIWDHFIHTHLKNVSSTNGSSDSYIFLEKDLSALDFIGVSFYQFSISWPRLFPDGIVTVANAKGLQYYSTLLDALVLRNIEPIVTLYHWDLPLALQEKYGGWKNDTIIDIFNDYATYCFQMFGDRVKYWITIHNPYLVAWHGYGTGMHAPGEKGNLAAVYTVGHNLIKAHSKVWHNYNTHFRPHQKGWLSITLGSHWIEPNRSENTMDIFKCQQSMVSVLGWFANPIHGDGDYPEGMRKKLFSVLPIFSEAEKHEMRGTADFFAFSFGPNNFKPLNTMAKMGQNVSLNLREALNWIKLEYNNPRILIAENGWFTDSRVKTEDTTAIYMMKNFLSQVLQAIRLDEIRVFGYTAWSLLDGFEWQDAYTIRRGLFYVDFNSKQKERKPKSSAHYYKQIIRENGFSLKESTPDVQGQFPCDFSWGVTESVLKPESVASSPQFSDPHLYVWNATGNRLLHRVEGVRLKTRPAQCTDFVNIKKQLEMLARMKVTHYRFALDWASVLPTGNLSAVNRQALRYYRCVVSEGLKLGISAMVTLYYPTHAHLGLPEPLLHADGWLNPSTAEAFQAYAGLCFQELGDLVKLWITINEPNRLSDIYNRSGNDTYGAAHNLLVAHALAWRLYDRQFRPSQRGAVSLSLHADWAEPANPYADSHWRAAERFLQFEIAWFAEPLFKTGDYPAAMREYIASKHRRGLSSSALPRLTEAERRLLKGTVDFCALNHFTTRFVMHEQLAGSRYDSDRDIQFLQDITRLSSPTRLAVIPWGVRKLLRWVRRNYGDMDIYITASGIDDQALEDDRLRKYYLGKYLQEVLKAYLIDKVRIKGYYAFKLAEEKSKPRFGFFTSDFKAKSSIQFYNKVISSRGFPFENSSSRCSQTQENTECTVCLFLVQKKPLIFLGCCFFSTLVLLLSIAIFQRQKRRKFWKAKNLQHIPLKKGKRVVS
# test method notes: cell-based or functional assay
Kindly provide the numeric value in nmol/L only, without the unit symbol.

Ask: Name the reported EC50 value associated with the binder Ab0363 (antibody, IgG4, V domains shown) VH: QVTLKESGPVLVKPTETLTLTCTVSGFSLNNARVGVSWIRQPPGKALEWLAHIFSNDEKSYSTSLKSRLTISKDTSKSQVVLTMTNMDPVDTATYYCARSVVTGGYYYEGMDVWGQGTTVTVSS VL: SYVLTQPPSVSVAPGQTARITCGGANIGSESVHWYQQKPGQAPVLVVYSASDRPSGIPERFSGSNSGNTATLTISRVEAGDEADYYCQVWAGASDHVVFGGGTKLTVLG
Result: 0.48

Ask: Name the reported EC50 value associated with the binder Ab0306 (antibody, IgG4, V domains shown, IgG4 PE) VH: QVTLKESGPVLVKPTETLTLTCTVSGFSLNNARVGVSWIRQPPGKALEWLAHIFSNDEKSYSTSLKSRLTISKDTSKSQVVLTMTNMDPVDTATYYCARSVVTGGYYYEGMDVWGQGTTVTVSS VL: SYVLTQPPSVSVAPGQTARITCGGSNIGSESVHWYQQKPGQAPVLVVYDDSDRPSGIPERFSGSNSGNTATLTISRVEAGDEADYYCQVWDGESDHVVFGGGTKLTVLG
Result: 0.05

Ask: Name the reported EC50 value associated with the binder Ab0303 (antibody, IgG4, V domains shown) VH: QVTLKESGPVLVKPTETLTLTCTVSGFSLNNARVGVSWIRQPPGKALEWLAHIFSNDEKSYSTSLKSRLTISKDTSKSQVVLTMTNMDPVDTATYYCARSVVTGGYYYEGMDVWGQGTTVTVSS VL: SYVLTQPPSVSVAPGQTARITCGGSNIGSESVHWYQQKPGQAPVLVVYDESDRPSGIPERFSGSNSGNTATLTISRVEAGDEADYYCQVWTGNSDHVVFGGGTKLTVLG
Result: 19.2
